Provide the reported Proliferation activity on human myoblast cells (%), 0.005 nM, Experiment 1 of each item.
# measured target: human IGF-I receptor (human, UniProt P08069 31-1367)
# Sequence (P08069 31-1367 limits assumed): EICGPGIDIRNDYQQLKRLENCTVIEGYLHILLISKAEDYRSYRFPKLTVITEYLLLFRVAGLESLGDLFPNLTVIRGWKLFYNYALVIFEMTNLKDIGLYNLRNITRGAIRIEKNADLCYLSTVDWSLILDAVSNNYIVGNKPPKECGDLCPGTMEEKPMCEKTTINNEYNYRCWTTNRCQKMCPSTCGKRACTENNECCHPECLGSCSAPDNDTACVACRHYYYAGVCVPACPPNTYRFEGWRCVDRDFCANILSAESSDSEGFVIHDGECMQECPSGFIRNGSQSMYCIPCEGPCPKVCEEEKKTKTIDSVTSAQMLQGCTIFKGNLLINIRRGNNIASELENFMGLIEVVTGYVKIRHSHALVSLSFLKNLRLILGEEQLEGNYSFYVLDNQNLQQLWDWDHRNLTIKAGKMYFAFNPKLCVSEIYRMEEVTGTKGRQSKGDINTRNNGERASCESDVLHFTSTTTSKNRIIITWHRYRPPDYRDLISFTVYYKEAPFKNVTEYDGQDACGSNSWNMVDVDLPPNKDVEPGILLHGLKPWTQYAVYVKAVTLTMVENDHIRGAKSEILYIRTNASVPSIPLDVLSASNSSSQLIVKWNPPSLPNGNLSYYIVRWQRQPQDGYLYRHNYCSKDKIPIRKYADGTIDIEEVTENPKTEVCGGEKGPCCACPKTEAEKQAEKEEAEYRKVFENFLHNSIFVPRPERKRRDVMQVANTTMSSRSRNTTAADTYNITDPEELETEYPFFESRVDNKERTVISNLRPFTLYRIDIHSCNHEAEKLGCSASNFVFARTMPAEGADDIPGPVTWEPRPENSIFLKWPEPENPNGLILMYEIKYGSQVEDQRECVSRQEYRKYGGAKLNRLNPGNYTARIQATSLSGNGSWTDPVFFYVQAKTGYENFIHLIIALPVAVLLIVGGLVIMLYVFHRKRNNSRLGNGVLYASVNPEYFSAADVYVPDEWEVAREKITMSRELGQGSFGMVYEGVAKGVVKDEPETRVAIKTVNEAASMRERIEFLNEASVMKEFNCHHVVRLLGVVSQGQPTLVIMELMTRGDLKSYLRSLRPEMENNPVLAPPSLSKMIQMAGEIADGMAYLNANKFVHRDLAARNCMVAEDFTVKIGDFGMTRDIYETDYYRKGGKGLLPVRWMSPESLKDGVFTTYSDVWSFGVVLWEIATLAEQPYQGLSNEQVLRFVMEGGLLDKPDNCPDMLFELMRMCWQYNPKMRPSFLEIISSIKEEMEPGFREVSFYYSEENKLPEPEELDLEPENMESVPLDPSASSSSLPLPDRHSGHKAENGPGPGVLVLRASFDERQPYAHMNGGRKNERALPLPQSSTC
# protocol: cell-based or functional assay
Give just the number in %; leave the unit off.

Sample anti-IGF-I receptor humanized antibody R11-16B (antibody, human IgG4, V domains shown, Heavy chain constant region: human IgG4 S228P variant; Expressed in Expi293, protein A purified; also called R11-16B antibody; R11-16VH + R11-16VL-C36Y) VH: QVQLVQPGAELVKPGASVKVSCKAPGYTFTSYWMHWVRQAPGQGLEWIGETNPSNSVTNYNEKFKSKATLTVDTSTSTVYMELSSLRSEDTAVYYCTIGRGRGFAYWGQGTLVTVSS VL: DIQMTQSPSSLSASVGDRVTITCRASQNINFWLSWYQQKPGKAPKLLIYKASNLHTGVPSRFSGSGSGTDFTFTISSLQPEDIATYYCLQGQSYPYTFGQGTKLEIK ; Proliferation activity on human myoblast cells (%), 0.005 nM, Experiment 1 observed: 147

Sample anti-IGF-I receptor humanized antibody R11-16E (antibody, human IgG4, V domains shown, also called R11-16E antibody; R11-16VH + R11-16VL-C36F) VH: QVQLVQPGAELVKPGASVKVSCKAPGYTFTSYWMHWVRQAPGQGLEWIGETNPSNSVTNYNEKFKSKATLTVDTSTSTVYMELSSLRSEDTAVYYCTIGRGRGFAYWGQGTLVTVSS VL: DIQMTQSPSSLSASVGDRVTITCRASQNINFWLSWFQQKPGKAPKLLIYKASNLHTGVPSRFSGSGSGTDFTFTISSLQPEDIATYYCLQGQSYPYTFGQGTKLEIK ; Proliferation activity on human myoblast cells (%), 0.005 nM, Experiment 1 observed: 150

Sample anti-IGF-I receptor humanized antibody R11-16F (antibody, human IgG4, V domains shown, also called R11-16F antibody; R11-16VH + R11-16VL-C36) VH: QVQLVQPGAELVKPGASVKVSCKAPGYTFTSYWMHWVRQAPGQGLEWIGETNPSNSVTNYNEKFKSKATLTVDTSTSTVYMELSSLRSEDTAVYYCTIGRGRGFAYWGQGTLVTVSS VL: DIQMTQSPSSLSASVGDRVTITCRASQNINFWLSWCQQKPGKAPKLLIYKASNLHTGVPSRFSGSGSGTDFTFTISSLQPEDIATYYCLQGQSYPYTFGQGTKLEIK ; Proliferation activity on human myoblast cells (%), 0.005 nM, Experiment 1 observed: 146
